Hello, the source for this data is paper PMC9706563, in case you need it.

Target: PRMT5-MEP50 (Homo sapiens, UniProt O14744)
Construct: The compounds were tested by means of FP with the full-length PRMT5-MEP50 complex; made in house
Sequence (O14744 whole entry): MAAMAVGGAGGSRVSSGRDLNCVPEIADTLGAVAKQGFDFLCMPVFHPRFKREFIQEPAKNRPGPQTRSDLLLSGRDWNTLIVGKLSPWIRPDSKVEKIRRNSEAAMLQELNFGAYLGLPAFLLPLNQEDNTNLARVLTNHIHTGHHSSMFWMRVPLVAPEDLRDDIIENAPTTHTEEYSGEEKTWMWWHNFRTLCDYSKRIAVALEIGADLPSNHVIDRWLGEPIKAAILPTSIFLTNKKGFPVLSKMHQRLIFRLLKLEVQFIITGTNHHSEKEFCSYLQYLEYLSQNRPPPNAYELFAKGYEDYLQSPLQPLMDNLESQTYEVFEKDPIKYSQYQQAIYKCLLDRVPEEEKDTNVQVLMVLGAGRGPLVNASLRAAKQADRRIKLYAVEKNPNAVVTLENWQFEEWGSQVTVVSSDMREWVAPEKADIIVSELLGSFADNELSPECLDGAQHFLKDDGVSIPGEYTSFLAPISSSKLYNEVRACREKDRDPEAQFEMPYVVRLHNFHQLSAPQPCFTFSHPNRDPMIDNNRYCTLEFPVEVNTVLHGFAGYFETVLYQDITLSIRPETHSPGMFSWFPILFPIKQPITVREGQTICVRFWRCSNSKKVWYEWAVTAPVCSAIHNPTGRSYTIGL
Sequence (Q9BQA1 whole entry partner): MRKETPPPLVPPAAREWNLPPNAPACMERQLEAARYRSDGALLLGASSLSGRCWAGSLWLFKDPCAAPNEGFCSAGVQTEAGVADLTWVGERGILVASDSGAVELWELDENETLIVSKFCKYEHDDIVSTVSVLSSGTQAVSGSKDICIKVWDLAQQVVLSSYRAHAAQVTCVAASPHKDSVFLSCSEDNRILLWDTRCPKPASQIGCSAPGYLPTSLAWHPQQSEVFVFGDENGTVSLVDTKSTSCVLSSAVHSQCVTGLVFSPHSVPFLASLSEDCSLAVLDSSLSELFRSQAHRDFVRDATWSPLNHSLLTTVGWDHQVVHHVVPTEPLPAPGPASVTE
Experiment: Direct binding fluorescence polarization (FP) assay of FITC-labeled peptides
Settings: supplementary CSV, read-out: PRMT5-MEP50 Kd
Numbered stars: 1 amine (or outer) side, 2 acyl side, 3 side chain; on linkers, the order of the positions; unused ones are H or OH. Bridge positions count the residues as written; N and C are the ends. Square brackets hold non-standard residues; d marks the D form. Peptide text beside a SMILES is read from it. * marks the point of attachment. FITC = O=C1OC2(c3ccc(O)cc3Oc3cc(O)ccc32)c2ccc(NC(=S)*)cc21; dNva(5-ylidene) = O=C([C@@H](CCC=[*:3])N[*:1])[*:2]; Gla = N[C@@H](CC(C(=O)O)C(=O)O)C(=O)O; Phe(2-I) = N[C@@H](Cc1ccccc1I)C(=O)O; hPhe = N[C@@H](CCc1ccccc1)C(=O)O; dAllylGly = C=CC[C@@H](N)C(=O)O; Nva = CCC[C@H](N)C(=O)O
readout-kind: Kd

compound: CC(=O)N[C@H](C(=O)N1CCC[C@H]1C(=O)N[C@@H]1CC=CCC[C@H](C(=O)N[C@@H](CC(=O)O)C(=O)N[C@@H](C)C(=O)N[C@@H](CC(=O)O)C(=O)N[C@@H](CCCCNC(=S)Nc2ccc3c(c2)C(=O)OC32c3ccc(O)cc3Oc3cc(O)ccc32)C(N)=O)NC(=O)[C@H](Cc2ccccc2)NC(=O)[C@H](CCC(N)=O)NC1=O)C(C)C
readout-kind: Kd
result: > 2 µM
--
compound: CC(=O)N[C@H](C(=O)N1CCC[C@H]1C(=O)NCC(=O)N[C@@H](CCC(N)=O)C(=O)N[C@@H](Cc1ccccc1)C(=O)N[C@@H](CC(=O)O)C(=O)N[C@@H](CC(=O)O)C(=O)N[C@@H](CO)C(=O)N[C@@H](CC(=O)O)C(=O)N[C@@H](CCCCNC(=S)Nc1ccc2c(c1)C(=O)OC21c2ccc(O)cc2Oc2cc(O)ccc21)C(N)=O)C(C)C [Compound S31] (Ac-VPGQFDDSDK(FITC)-NH2)
readout-kind: Kd
result: > 1 µM
--
compound: CC(=O)N[C@@H](CCc1ccccc1)C(=O)N1CCC[C@H]1C(=O)NCC(=O)N[C@@H](CCC(N)=O)C(=O)N[C@@H](Cc1ccccc1)C(=O)N[C@@H](CC(=O)O)C(=O)N[C@@H](CC(=O)O)C(=O)N[C@@H](C)C(=O)N[C@@H](CC(=O)O)C(=O)N[C@@H](CCCCNC(=S)Nc1ccc2c(c1)C(=O)OC21c2ccc(O)cc2Oc2cc(O)ccc21)C(N)=O [Compound S4] (Ac-[hPhe]PGQFDDADK(FITC)-NH2)
readout-kind: Kd
result: > 1 µM
--
compound: CC(C)[C@H](NC(=O)[C@H](CCCNC(=N)N)NC(=O)[C@H](CO)NC(=O)COCCOCCNC(=S)Nc1ccc2c(c1)C(=O)OC21c2ccc(O)cc2Oc2cc(O)ccc21)C(=O)N[C@H](C(=O)N1CCC[C@H]1C(=O)N[C@@H]1CC=CC[C@H](C(=O)N[C@@H](CC(=O)O)C(=O)N[C@@H](C)C(=O)N[C@@H](CC(=O)O)C(N)=O)NC(=O)[C@H](Cc2ccccc2)NC(=O)[C@H](CCC(N)=O)NC1=O)C(C)C (single isomer, unassigned) [15 (isomer 1)]
readout-kind: Kd
result: > 2 µM
--
compound: CC(C)[C@H](NC(=O)[C@H](CCCNC(=N)N)NC(=O)[C@H](CO)NC(=O)COCCOCCNC(=S)Nc1ccc2c(c1)C(=O)OC21c2ccc(O)cc2Oc2cc(O)ccc21)C(=O)N[C@H](C(=O)N1CCC[C@H]1C(=O)NC1CCNC(=O)C[C@@H](C(=O)N[C@@H](CC(=O)O)C(=O)N[C@@H](C)C(=O)N[C@@H](CC(=O)O)C(N)=O)NC(=O)[C@H](Cc2ccccc2)NC(=O)[C@H](CCC(N)=O)NC1=O)C(C)C (stereo in doubt)
readout-kind: Kd
result: > 2 µM
--
compound: CC(=O)N[C@H](C(=O)N1CCC[C@H]1C(=O)NCC(=O)N[C@@H](CCC(N)=O)C(=O)N[C@@H](Cc1ccccc1)C(=O)N[C@@H](CC(=O)O)C(=O)N[C@@H](CC(C(=O)O)C(=O)O)C(=O)N[C@@H](C)C(=O)N[C@@H](CC(=O)O)C(=O)N[C@@H](CCCCNC(=S)Nc1ccc2c(c1)C(=O)OC21c2ccc(O)cc2Oc2cc(O)ccc21)C(N)=O)C(C)C [Compound S26] (Ac-VPGQFD[Gla]ADK(FITC)-NH2)
readout-kind: Kd
result: > 1 µM

Prompt: Value lookup for Kd; key = CCC[C@H](NC(=O)[C@H](CC(=O)O)NC(=O)[C@H](CC(=O)O)NC(=O)[C@H](Cc1ccccc1)NC(=O)[C@H](CCC(N)=O)NC(=O)CNC(=O)[C@@H]1CCCN1C(=O)[C@@H](NC(C)=O)C(C)C)C(=O)N[C@@H](CC(=O)O)C(=O)N[C@@H](CCCCNC(=S)Nc1ccc2c(c1)C(=O)OC21c2ccc(O)cc2Oc2cc(O)ccc21)C(N)=O [Compound S28] (Ac-VPGQFDD[Nva]DK(FITC)-NH2)
Response: > 1 µM

Prompt: Next record, please: CC(C)[C@H](NC(=O)[C@H](CCCNC(=N)N)NC(=O)[C@H](CO)NC(=O)COCCOCCNC(=S)Nc1ccc2c(c1)C(=O)OC21c2ccc(O)cc2Oc2cc(O)ccc21)C(=O)N[C@H](C(=O)N1CCC[C@H]1C(=O)NC1CNC(=O)C[C@@H](C(=O)N[C@@H](CC(=O)O)C(=O)N[C@@H](C)C(=O)N[C@@H](CC(=O)O)C(N)=O)NC(=O)[C@H](Cc2ccccc2)NC(=O)[C@H](CCC(N)=O)NC1=O)C(C)C (stereo in doubt)
Response: > 2 µM

Prompt: Next record, please: CC(=O)N[C@H](C(=O)N1CCC[C@H]1C(=O)NCC(=O)N[C@@H](CCC(N)=O)C(=O)N[C@@H](Cc1ccccc1I)C(=O)N[C@@H](CC(=O)O)C(=O)N[C@@H](CC(=O)O)C(=O)N[C@@H](C)C(=O)N[C@@H](CC(=O)O)C(=O)N[C@@H](CCCCNC(=S)Nc1ccc2c(c1)C(=O)OC21c2ccc(O)cc2Oc2cc(O)ccc21)C(N)=O)C(C)C [Compound S14] (Ac-VPGQ[Phe(2-I)]DDADK(FITC)-NH2)
Response: > 1 µM

Prompt: Next record, please: CC(=O)N[C@H](C(=O)N1CCC[C@H]1C(=O)N[C@@H]1CCC=CC[C@H](C(=O)N[C@@H](CC(=O)O)C(=O)N[C@@H](C)C(=O)N[C@@H](CC(=O)O)C(=O)N[C@@H](CCCCNC(=S)Nc2ccc3c(c2)C(=O)OC32c3ccc(O)cc3Oc3cc(O)ccc32)C(N)=O)NC(=O)[C@H](Cc2ccccc2)NC(=O)[C@H](CCC(N)=O)NC1=O)C(C)C [Compound 24] (Ac-VP[dNva(5-ylidene)]QF[dAllylGly]DADK(FITC)-NH2; staple 3-6)
Response: > 2 µM

---

Assay: Stability assay in cell lysate
Format: in vitro ADME
Details: cells or culture medium, supplementary CSV; read-out: Half-llife in Lysate (converted)
readout-kind: half-life (min)
Express your answer in min, writing the number without its unit.

Prompt: Value lookup for half-life; key = Ac-VPGQFDDAD-NH2 [Compound 31]
Response: 259

---

Molecular target: PRMT5-MEP50 (Homo sapiens, UniProt O14744)
Construct: The compounds were tested by means of FP with the full-length PRMT5-MEP50 complex; made in house
Assay: Direct binding fluorescence polarization (FP) assay of FITC-labeled peptides
Details: supplementary CSV, read-out: PRMT5-MEP50 Kd
Peptide text beside a SMILES is read from it. * marks the point of attachment. FITC = O=C1OC2(c3ccc(O)cc3Oc3cc(O)ccc32)c2ccc(NC(=S)*)cc21
readout-kind: Kd (nM)
Express your answer in nM, writing the number without its unit.

compound: CC(=O)N[C@@H](CCC(=O)O)C(=O)N1CCC[C@H]1C(=O)NCC(=O)N[C@@H](CCC(N)=O)C(=O)N[C@@H](Cc1ccccc1)C(=O)N[C@@H](CC(=O)O)C(=O)N[C@@H](CC(=O)O)C(=O)N[C@@H](C)C(=O)N[C@@H](CC(=O)O)C(=O)N[C@@H](CCCCNC(=S)Nc1ccc2c(c1)C(=O)OC21c2ccc(O)cc2Oc2cc(O)ccc21)C(N)=O [Compound S7] (Ac-EPGQFDDADK(FITC)-NH2)
Kd, nM: 695

Alright, here's another compound for you.
Prompt: Report Kd for CC(=O)N[C@H](C(=O)N1CCC[C@H]1C(=O)NC1CC=CC[C@@H](C(=O)N[C@@H](CC(=O)O)C(=O)N[C@@H](C)C(=O)N[C@@H](CC(=O)O)C(=O)N[C@@H](CCCCNC(=S)Nc2ccc3c(c2)C(=O)OC32c3ccc(O)cc3Oc3cc(O)ccc32)C(N)=O)NC(=O)[C@H](Cc2ccccc2)NC(=O)[C@H](CCC(N)=O)NC1=O)C(C)C (stereo in doubt) tested on PRMT5-MEP50 (Homo sapiens, UniProt O14744).
Response: 452
